- Test system: A498 renal
- assay_notes: NCI-60 one-dose screen, 48 h (100 = growth as untreated, 0 = no growth, -100 = all killed)
- measurement_parameters: 10 µM unless noted
Compounds without any hit were thinned out: in the full panel of roughly 83,000, 20% have a hit.
Answer not met if growth is under 60%, and met if it is 60% or more.

| smi | experimental_system | class_assignment |
| --- | --- | --- |
| COc1cc2ncnc(Nc3ccc(OCc4cccc(F)c4)c(Cl)c3)c2cc1NC(=O)C1CCCC1 | A498 renal | not met |
| Cc1ccc(/C=C(\C#N)c2cc3ccccc3n2C)cc1 | A498 renal | not met |
| COc1ccc(C2(Cl)c3ccccc3N(c3ccccc3)c3ccccc32)cc1 | A498 renal | not met |
| COc1ccc(/C=C2\N=C(c3ccccc3)N(c3cc(OC)c(OC)cc3C(=O)N3N=C(C)CC3=O)C2=O)cc1 | A498 renal | not met |
| NC(N)=N/N=C/c1ccc(-c2ccc(-c3ccc(Cl)cn3)s2)cc1 | A498 renal | met |
| C=C(C)[C@@H]1CC[C@]2(C=O)CC[C@]3(C)[C@H](CC[C@@H]4[C@@]5(C)C/C(=C/c6cccnc6)C(=O)C(C)(C)[C@@H]5CC[C@]43C)[C@@H]12 | A498 renal | met |
| C=C1C(=O)O[C@H]2[C@H]1CC/C(Cn1cc(-c3ccc(OC)cc3)nn1)=C\CC[C@@]1(C)O[C@@H]21 | A498 renal | not met |
| OCC(CO)(CCl)CCl | A498 renal | met |
